- System: AncSZ
- method_notes: phosphorylation enrichment, bacterial display (enrichment ratio); higher = better substrate or ligand; peptides without Tyr show the background
This listing pairs sequences with measured phosphorylation enrichment.
readout: phosphorylation enrichment

residue_codes: YKPGFYNLKEK [LAMA1_Y490_C485Y]
tested_target: AncSZ
measured_number: 0.659

residue_codes: EYGSGYPNDPK [RNASEH2A_Y210_D205E]
tested_target: AncSZ
measured_number: 0.697

residue_codes: HEVHIYEKSGA [ARPC1B_Y35]
tested_target: AncSZ
measured_number: 1.38

residue_codes: FQRLRYIKQLG [SAMHD1_Y146]
tested_target: AncSZ
measured_number: 0.8

residue_codes: DKATEYIQFVR [MAX_Y70_M74V_YF]
tested_target: AncSZ
measured_number: 0.74

residue_codes: NKEAIYSGYIR [SMCHD1_Y283]
tested_target: AncSZ
measured_number: 0.724

residue_codes: ILLAGCLVMVI [SLC28A3_Y113_Y113C]
tested_target: AncSZ
measured_number: 1.24

residue_codes: RFWPRYVKVGS [NOG_Y172]
tested_target: AncSZ
measured_number: 1.36

residue_codes: NSRYTCKLEVK [USH2A_Y3747_Y3747C]
tested_target: AncSZ
measured_number: 1.21

residue_codes: TRDTDYQMTKR [ADA_Y308_L304R]
tested_target: AncSZ
measured_number: 0.639

residue_codes: RASQEYHIVKK [PDZD2_Y557_S552R]
tested_target: AncSZ
measured_number: 0.772

residue_codes: ILTLKYPIKHG [ACTA1_Y71_E74K]
tested_target: AncSZ
measured_number: 0.523

residue_codes: KNRDVSSSDFF [USP24_Y2134_Y2134S_YF]
tested_target: AncSZ
measured_number: 0.701

residue_codes: HNQDGYSFLSR [LDLR_Y845_P848L_YF]
tested_target: AncSZ
measured_number: 0.867

residue_codes: METKGYHSLPE [NR3C2_Y6]
tested_target: AncSZ
measured_number: 0.696

residue_codes: VDEVLYEDSSA [MTHFS_Y197_T202A]
tested_target: AncSZ
measured_number: 1.47

residue_codes: VEDQYYCVDCY [FHL1_Y208]
tested_target: AncSZ
measured_number: 5.02

residue_codes: RIVEIYSRSLQ [GCH1_Y175_R178S]
tested_target: AncSZ
measured_number: 1.43

residue_codes: HLVLNYGVCIC [JAK2_Y613_V617I]
tested_target: AncSZ
measured_number: 1.52

residue_codes: TLMNAYSSRCH [KIF11_Y231_S235C]
tested_target: AncSZ
measured_number: 1

residue_codes: AGVDRYSLGTS [C5orf42_Y1451_P1446A]
tested_target: AncSZ
measured_number: 0.59

residue_codes: LATINYPFEKG [NDUFS8_Y84_P79L]
tested_target: AncSZ
measured_number: 0.827

residue_codes: ATAKGYEPDAS [OTC_Y223_P220A]
tested_target: AncSZ
measured_number: 0.883

residue_codes: GAPATYEGDAR [CACNA1A_Y1013]
tested_target: AncSZ
measured_number: 0.58

residue_codes: DPEATYTTSGG [EPHA2_Y772]
tested_target: AncSZ;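 further: frequency after pTyr selection over input frequency; kinase dosed for 20-30% of maximal phosphorylation in three min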
measured_number: 1.22

residue_codes: HGDSAYHSQRH [ERBB3_Y1132_R1127H]
tested_target: AncSZ;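 further: frequency after pTyr selection over input frequency; kinase dosed for 20-30% of maximal phosphorylation in three min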
measured_number: 1.2

residue_codes: EHTTLYSDNST [KANSL1_Y223_N225D]
tested_target: AncSZ;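 further: frequency after pTyr selection over input frequency; kinase dosed for 20-30% of maximal phosphorylation in three min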
measured_number: 0.697

residue_codes: LNAGAYSKVVE [PPT1_Y172_Q177E]
tested_target: AncSZ;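 further: 11-residue human phosphosite peptides and single-mutation variants displayed on the E. coli surface, counted by deep sequencing, each peptide's frequency after selection divided by its frequency in the unselected input library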;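 further: frequency after pTyr selection over input frequency; kinase dosed for 20-30% of maximal phosphorylation in three min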
measured_number: 0.447
